# Procedure Details: Metabolic stability in rat liver microsomes assessed as intrinsic clearance
# Format: ADME, Microsome
# Details: read-out: CLH
Quantity: CLint scaled (mL/min/kg)
Field: numeric (mL/min/kg). Do not append units.

Asked: CLint scaled lookup needed for COc1cccc(CNCc2c(C(=O)O)n(Cc3ccc(C)cc3)c3cc(C(C)C)ccc23)c1 , thanks.
Given back: 269

---

# Test system: SNU-387
# Procedure Details: Antiproliferative activity against human SNU-387 cells assessed as reduction in cell viability incubated for 72 hrs by MTT assay
# Assay type: functional, cell-based
# Details: SNU-387, 72 h
Quick rule for you: IC50 under 6 µM gets yes (1), anything else gets no (0).

- Substance Smiles: "COc1ccc(Cn2c(C(=O)O)c(CNCc3cccc(O)c3)c3ccc(C(C)C)cc32)cc1"
  Target Or Test System: "SNU-387"
  Cat: "no (0)"
- Substance Smiles: "COc1ccc(Cn2c(C(=O)O)c(CNCc3cccc(O)c3)c3ccc(C)cc32)cc1"
  Target Or Test System: "SNU-387"
  Cat: "no (0)"
- Substance Smiles: "COc1cccc(CNCc2c(C(=O)O)n(Cc3ccc(C)cc3)c3cc(C(C)C)ccc23)c1"
  Target Or Test System: "SNU-387"
  Cat: "yes (1)"

Below: the item to evaluate.
Asked: Decide: IC50 of COc1cccc(CNCc2c(C(=O)O)n(Cc3ccc(O)cc3)c3cc(C(C)C)ccc23)c1 strictly below 6 µM?
Given back: yes (1)

---

# Target Or Test System: 14-3-3 protein eta (Homo sapiens, UniProt Q04917)
# Sequence (Q04917 whole entry): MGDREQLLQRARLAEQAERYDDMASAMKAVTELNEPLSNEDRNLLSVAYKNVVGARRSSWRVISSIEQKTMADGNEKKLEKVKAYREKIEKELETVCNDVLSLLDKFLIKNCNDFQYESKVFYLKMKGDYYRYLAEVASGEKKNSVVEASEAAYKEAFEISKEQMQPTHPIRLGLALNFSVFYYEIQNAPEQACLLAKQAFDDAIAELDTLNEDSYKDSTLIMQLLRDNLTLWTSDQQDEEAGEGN
pKd: −log10 of the molar value.
Kind request: treat 4 as inclusive, so pKd at 4 or higher is Y, anything lower is N.

- Substance Smiles: "COc1cccc(CNCc2c(C(=O)O)n(Cc3ccc(O)cc3)c3cc(C(C)C)ccc23)c1"
  Cat: "Y"
- Substance Smiles: "COc1ccc(Cn2c(C(=O)O)c(CNCc3ccc(O)c(OC)c3)c3ccc(C)cc32)cc1"
  Cat: "N"
- Substance Smiles: "COc1ccc(Cn2c(C(=O)O)c(CNCc3ccc(O)c(OC)c3)c3ccccc32)cc1"
  Cat: "N"
- Substance Smiles: "COc1cccc(CNCc2c(C(=O)O)n(Cc3ccc(F)cc3)c3ccccc23)c1"
  Cat: "N"

Below: the item to evaluate.
Asked: Given COc1cccc(CNCc2c(C(=O)O)n(Cc3ccccc3F)c3cc(C(C)C)ccc23)c1 , state whether its pKd is at least 4.
Given back: Y

---

# Procedure Details: Metabolic stability in human liver microsomes assessed as half life
# Type: ADME, Microsome
Quantity: half-life

Asked: half-life lookup needed for COc1cccc(CNCc2c(C(=O)O)n(Cc3ccc(C)cc3)c3cc(C(C)C)ccc23)c1 , thanks.
Given back: 7.31 min

---

# System: HepG2
# Procedure Details: Antiproliferative activity against human HepG2 cells assessed as reduction in cell viability incubated for 72 hrs by MTT assay
# Assay type: functional, cell-based
# Details: HepG2, 72 h
IC50 listing for selected molecules.
Field: numeric (µM). Do not append units.

Asked: Give HepG2 IC50 for COc1ccc(Cn2c(C(=O)O)c(CNCc3ccc(O)c(OC)c3)c3ccc(C)cc32)cc1
Given back: 3.74

Asked: Give HepG2 IC50 for COc1cccc(CNCc2c(C(=O)O)n(Cc3ccccc3)c3cc(C(C)C)ccc23)c1
Given back: 3.18

Asked: Give HepG2 IC50 for COc1cccc(CNCc2c(C(=O)O)n(Cc3ccc(C)cc3)c3cc(C(C)C)ccc23)c1
Given back: 3.43
